B1: tRNA (parent)
chain: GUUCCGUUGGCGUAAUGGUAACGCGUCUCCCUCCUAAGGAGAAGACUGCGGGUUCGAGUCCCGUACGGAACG

# Variants of: B1
# Procedure Text: yeast fitness relative to wild type (ratio to wild type); higher = fitter; tRNA-Arg(CCU), competitive growth, 37 C, YPD
Variants at the floor of the assay were thinned out.
Could you label it t if measured yeast fitness is 0.6 or higher, and f otherwise?

{"Mutation List": "C31U A37U A69U", "Label Value": "t"}
{"Mutation List": "C22U C27U", "Label Value": "t"}
{"Mutation List": "G6A A20C C66A", "Label Value": "f"}
{"Mutation List": "C11G C62U A65U", "Label Value": "f"}
{"Mutation List": "C11U A14U A40G A42C", "Label Value": "f"}
{"Mutation List": "U3C A14C A45C A65C", "Label Value": "f"}
{"Mutation List": "U8A C31G C46U C60A", "Label Value": "f"}
{"Mutation List": "U3C C22U C66U", "Label Value": "f"}
{"Mutation List": "U26C U35A C62U", "Label Value": "f"}
{"Mutation List": "U16A A20U C24G C33G C61A", "Label Value": "f"}
{"Mutation List": "C5G U13A C22G U59A", "Label Value": "f"}
{"Mutation List": "G23C C66A", "Label Value": "f"}
{"Mutation List": "U8C A70C", "Label Value": "t"}
{"Mutation List": "G9C A20G A42U G44C G50C", "Label Value": "f"}
{"Mutation List": "A20C A21G G67C", "Label Value": "t"}
{"Mutation List": "U13A A20C A40U", "Label Value": "f"}
{"Mutation List": "G12A A15C C62G A65C", "Label Value": "f"}
{"Mutation List": "C4U U8A U16C A20U C29U A45C", "Label Value": "f"}
{"Mutation List": "G56C A70U", "Label Value": "t"}
{"Mutation List": "U7A C31A", "Label Value": "t"}
{"Mutation List": "U16G C33U G44C", "Label Value": "f"}
{"Mutation List": "C11G A45U U64C", "Label Value": "f"}
